// reported FC (fold change) for each item listed
- testProtocol: Example 4: dose response of FKBP constructs 160-255, Ec50, Ec90 and fold change (raw and normalized to mCherry)
- Type: cell-based
- protocolConditions: fold change during initial analysis

Give FC (fold change) for FKBP-177 (protein, Description of sequence: Construct Name: FKBP-177; Mutation(s): Q72R Q84E A117W DRD M54AL80G) HCPIKSRKGDVLHAHYTGKLEDGTEFDSSLPRNQPFVFSGGTGEVIKGWDQGLLGMCEGEKRKLVIPSELGYGERGWPPKIPGGATLVFEVELLKIER
22.3

Return FC (fold change) (reported value) for this molecule: FKBP-229: FKBP13 DRD-AcGFP construct of Table 10 (protein, Description of sequence: Construct Name: FKBP-229; Mutation(s): Q72R Q84E A117W V85R DRD E137R M54A) HCPIKSRKGDVLHAHYTGKLEDGTEFDSSLPRNQPFVFSLGTGERIKGWDQGLLGMCEGEKRKLVIPSELGYGERGWPPKIPGGATLVFEVELLKIRR
54.0

Specify measured FC (fold change) for FKBP-202 (protein, Description of sequence: Construct Name: FKBP-202; Mutation(s): Q72R Q84E A117W V85R DRD M54A G49S) HCPIKSRKSDVLHAHYTGKLEDGTEFDSSLPRNQPFVFSLGTGERIKGWDQGLLGMCEGEKRKLVIPSELGYGERGWPPKIPGGATLVFEVELLKIER .
46.2

Give the measured FC (fold change) for FKBP-218 (protein, Description of sequence: Construct Name: FKBP-218; Mutation(s): Q72R Q84E A117W DRD M54A E61G K101G K135E) HCPIKSRKGDVLHAHYTGKLGDGTEFDSSLPRNQPFVFSLGTGEVIKGWDQGLLGMCEGEGRKLVIPSELGYGERGWPPKIPGGATLVFEVELLEIER
4.46
